- Test system: Escherichia coli TOP10;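 further: peptides expressed intracellularly from a pBAD plasmid library in pooled LB shake-flask culture, induced with 0.3% L-arabinose, DNA abundance read by NGS, three biological replicates, DESeq2 with apeglm shrinkage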
- experiment description: shrunken log2 fold change of peptide-encoding DNA abundance (4.5 h post-induction vs induction); higher = less antimicrobial activity (less host growth inhibition)
- condition details: time post-induction: 4.5 h; library: site-saturation at positions 5, 18, 19, 20
value kind: shrunken log2 fold change
Write the number on its own, no unit after it.

Prompt: Can you look up the measured shrunken log2 fold change of RRIRMRPPRLPRPRPRPVIHPRP for me?
Response: 0.0153

Prompt: Can you look up the measured shrunken log2 fold change of RRIRQRPPRLPRPRPRPAHKPRP for me?
Response: -0.0849

Prompt: Can you look up the measured shrunken log2 fold change of RRIRQRPPRLPRPRPRPNCVPRP for me?
Response: -0.0688

Prompt: Can you look up the measured shrunken log2 fold change of RRIRSRPPRLPRPRPRPICLPRP for me?
Response: 0.259

Prompt: Can you look up the measured shrunken log2 fold change of RRIRARPPRLPRPRPRPQFEPRP for me?
Response: -0.102

Prompt: Can you look up the measured shrunken log2 fold change of RRIRCRPPRLPRPRPRPWAQPRP for me?
Response: -0.211

Prompt: Can you look up the measured shrunken log2 fold change of RRIRRRPPRLPRPRPRPQHYPRP for me?
Response: -0.128

Prompt: Can you look up the measured shrunken log2 fold change of RRIRVRPPRLPRPRPRPVTVPRP for me?
Response: -0.0359

Prompt: Can you look up the measured shrunken log2 fold change of RRIRGRPPRLPRPRPRPRVTPRP for me?
Response: 0.744

Prompt: Can you look up the measured shrunken log2 fold change of RRIRWRPPRLPRPRPRPSRPPRP for me?
Response: 0.402

Prompt: Can you look up the measured shrunken log2 fold change of RRIRDRPPRLPRPRPRPGDNPRP for me?
Response: 2.29

Prompt: Can you look up the measured shrunken log2 fold change of RRIRWRPPRLPRPRPRPSSEPRP for me?
Response: 0.0908

Prompt: Can you look up the measured shrunken log2 fold change of RRIRWRPPRLPRPRPRPDTMPRP for me?
Response: 0.19

Prompt: Can you look up the measured shrunken log2 fold change of RRIRTRPPRLPRPRPRPIWIPRP for me?
Response: -0.00704

Prompt: Can you look up the measured shrunken log2 fold change of RRIRSRPPRLPRPRPRPQRWPRP for me?
Response: 0.319
